Across several publications, the following IC50 results were reported for Aldehyde dehydrogenase 1A1 (Homo sapiens).
readout-label: IC50 (nM)

(P) O=C(C1CC1)N1CCN(Cc2nc3ccccc3n2Cc2ccccc2Cl)CC1
(Q) CCC(=O)N1CCN(Cc2nc3ccccc3n2Cc2cccc(C)c2)CC1
(R) O=C1C(=O)N(CN2CCOCC2)c2ccccc21
Q. Sort key = IC50. Sort direction = ascending. Apply to the list above. Reply with the item labels sorted in the order that was asked for.
A. Q, P, R
(Q: 626 nM, P: 1020 nM, R: 20000 nM)

(A) Clc1ccc(-c2nc3ccccc3n2Cc2ccccc2)cc1
(B) Cc1cc(Br)c2c(c1)C(=O)C(=O)N2
Q. Of the pair A and B , name the member with the lesser recorded IC50. Record your answer as the label of the chosen record.
A. A
(A: 320 nM, B: 720 nM)

(a) O=C1C(=O)N(CCCc2ccccc2)c2ccccc21
(b) O=C1C(=O)N(CN2CCN(Cc3ccccc3F)CC2)c2ccccc21
(c) N=C(N)SCc1ccc(CN2C(=O)C(=O)c3cccc(F)c32)cc1
Q. Order the records by IC50, with each subsequent value no larger than the one before. // list labels; follow requested order
A. b, c, a
